System: Trypanosoma brucei
Experiment: AntiTrypanosoma brucei activity T. b. rhodesiense IC50 (uM)
Type: functional, organism-based
Can you tell me pIC50 for the items I'm about to list?
One number for each entry, as −log10 of the molar value.

GET /values?readout=pIC50&system=Trypanosoma brucei&item= Clc1ccc(Cl)c(CO[C@H]2CCCC[C@@H]2n2ccnc2)c1 4.64

Give pIC50 for each of the items listed below.
1. c1ccc(Oc2ccc(-c3cc(C4CCOCC4)[nH]n3)cc2)cc1
2. CCc1nn(C)c(C(=O)NCc2ccc(Oc3ccc(C)cc3)cc2)c1Cl
3. Clc1ccc(CN2CCN(C3=NCCN3)CC2)cc1Cl
4. c1ccc(Oc2ccc(-c3cc(N4CCOCC4)[nH]n3)cc2)cc1
5. CC(C)(C)C(O)C(Oc1ccc(-c2ccccc2)cc1)n1cncn1 (stereo unspecified)
6. N=C(N)Nc1ccc(-c2ccc(-c3ccc(N=C(N)N)c(Cl)c3)o2)cc1Cl
7. Cc1nn2c(=O)c3c([nH]c2c1-c1ccc(Cl)cc1)CCCC3

1: 5.42; 2: 4.69; 3: 4.52; 4: 5.89; 5: 4.55; 6: 6.70; 7: 6.85

Give pIC50 for each of the items listed below.
1. CC(C)(C)OC(=O)N1CCN(c2cc(-c3ccc(Oc4ccccc4)cc3)n[nH]2)CC1
2. CNC(=O)C1Cc2ccccc2N1C(=O)Cc1ccc(F)cc1 (stereo unspecified)
3. CN1CCCN(C(c2ccccc2)c2ccc(Cl)cc2)CC1 (stereo unspecified)
4. N#CCN(CCCCN1CCN(c2ccc(F)cc2)CC1)C(=O)OCc1ccccc1
5. CCC(=O)Nc1ccccc1C(=O)Nc1ccccn1

5.57
6.42
5.71
4.79
5.88

Give pIC50 for each of the items listed below.
1. COc1cc(C2=NCCN2)ccc1-n1cc(-c2cccc(C3=NCCN3)c2)nn1
2. Cc1nc(-c2ccccn2)nc(N2CCC(Cc3ccccc3)C2)c1Cl (stereo unspecified)
3. CC1CCCCN1C(=O)NCCc1coc(-c2ccc(F)cc2)n1 (stereo unspecified)
4. O=C(NCc1nnc2n1CCCCC2)c1ccc(-c2ccc(F)cc2)o1
5. CN1CCN(S(=O)(=O)c2ccc(-c3ccc4c(Nc5ncc(Cl)cn5)ccnc4c3)cc2)CC1

[5.42, 5.25, 6.96, 6.89, 6.02]

---

Can you tell me CC20 for the items I'm about to list?
Tested on: HepG2
Assay: Cytotoxicity data HepG2 CC20 (uM)
Type: functional

Example entries begin here.
GET /values?readout=CC20&system=HepG2&item= CCCNC(=O)N1CCC2(CC1)CC(=O)c1cc(C)ccc1O2 >80 µM

What about O=C(CN1CCOCC1)Nc1ccc2ncnc(Nc3ccc(OCc4cccc(F)c4)c(Cl)c3)c2c1 ? 10.9 µM

What about O=C(C1CCN(c2nnnn2-c2ccccc2)CC1)N1CCc2ccccc2C1 ? >80 µM

What about Nc1ncc(-c2ccc(C(F)(F)F)nc2)cc1-c1ccc(C(F)(F)F)nc1 ? >80 µM

What about COc1ccc(N(CCc2cccc(C)n2)C(C)=O)cc1 ? >80 µM

Give CC20 for each of the items listed below.
1. Cc1cc(C(=O)Nc2cnn(Cc3ccc(Cl)cc3Cl)c2)no1
2. CC(=O)Nc1ccc(NC(=O)c2cc(-c3cc(Cl)ccc3O)n[nH]2)cc1
3. CN1CCN(S(=O)(=O)c2ccc(-c3ccc4c(Nc5ccc6nn[nH]c6c5)ccnc4c3)cc2)CC1
4. COc1cc(-c2cc(-c3ccc(S(C)(=O)=O)cc3)cnc2N)ccc1O
5. Cc1nnc(NC(=O)c2cn(-c3ccccc3)nc2-c2ccccc2C)o1

1. 30.6 µM
2. >80 µM
3. >80 µM
4. 1.55 µM
5. 0.92 µM
